SYSTEM_TESTED: Luciferin 4-monooxygenase (Photinus pyralis)
ASSAY_REMARKS: firefly luciferase enzyme inhibitors, primary screen, biochemical, luminescence, purified enzyme, 2006 set (AID 1141);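 note: cell-free assay with purified firefly luciferase at 100 ng per well in PBS; test concentration not given here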
ASSAY_SETUP: SteadyGlo luminescence, 30 min, higher = more signal, called active from +8 up or from −8 down
Record form. Attribute: z-score. Fill in for each entry.
Answers are plain numbers.

- QUERY_SMILES: "CO[C@H]1COC(=O)[C@@H](Cc2ccccc2)NC(=O)[C@@H](C)COC(=O)CCC[C@@H]1C"
  z-score: 0.643
- QUERY_SMILES: "CC(C)=CCCC(C)=CCON=C1C[C@@H](O)[C@@H](O)[C@@H]2[C@@H]3C(=O)N(Cc4ccccc4)C(=O)[C@@H]3CC[C@@H]12"
  z-score: 1.19
- QUERY_SMILES: "CC(C)=CCCC(C)=CCON=C1C[C@@H](O)[C@@H](O)[C@@H]2[C@@H]3C(=O)N(C4CCCCC4)C(=O)[C@@H]3CC[C@@H]12"
  z-score: 0.335

Would you mind listing z-score for each of the following compounds?
1. O=C1C[C@@H](O)[C@@H](O)[C@@H]2[C@@H]3C(=O)N(Cc4ccccc4)C(=O)[C@@H]3CC[C@@H]12
2. CC(=O)OC[C@H]1O[C@H](CC=NO[C@H](C)c2cn([C@H](CO)Cc3ccccc3)nn2)C=C[C@@H]1OC(C)=O
3. C[C@@H](c1ccccc1)N1C(=O)[C@H]2[C@H]3[C@H](O)[C@H](O)CC(=NO[C@@H]4O[C@H](CO)[C@@H](O)[C@H](O)[C@H]4O)[C@H]3CC[C@H]2C1=O

[-0.0665, 0.809, 0.491]

Would you mind listing z-score for each of the following compounds?
1. CC(CCN1CCCCc2nc(C)c(C)cc21)=NO[C@H](C)c1cn([C@H](CO)Cc2ccccc2)nn1
2. C=CC[C@@H]1C=C[C@H](ON=C[C@@H](C)[C@H](OCc2ccccc2)C(C)C)[C@@H](CO)O1

1. -1.09
2. 0.888

Would you mind listing z-score for each of the following compounds?
1. CO[C@@H]1COC(=O)[C@@H]2CCCN2C(=O)[C@@H](C)COC(=O)CC=C[C@H]1C
2. C#CCCCON=C1C[C@@H](O)[C@@H](O)[C@@H]2[C@@H]3C(=O)N(c4ccc(F)cc4F)C(=O)[C@@H]3CC[C@H]12
3. CC(C)=CCCC(C)=CCON=C1C[C@@H](O)[C@@H](O)[C@@H]2[C@@H]3C(=O)N(c4ccc(F)cc4F)C(=O)[C@@H]3CC[C@@H]12
4. CC(CCN1CCCCc2nc(C)c(C)cc21)=NO[C@@H](C)c1cn([C@H](CO)Cc2ccccc2)nn1
5. COc1ccc(O[C@@H]2[C@H](O)CO[C@H]2C=Cc2ccccc2)cc1
6. COC(=O)CC=C[C@@H](C)[C@@H]1C=C[C@H](O)[C@@H](CO)O1
7. COc1ccc(O[C@H]2C=C[C@@H](c3ccccc3)O[C@@H]2COC(=O)CCC(C)=NOC[C@@H](O)[C@H]2O[C@@H]3OC(C)(C)O[C@@H]3[C@H]2O)cc1

1: 1.48; 2: 0.573; 3: 1.03; 4: 0.175; 5: -1.69; 6: -0.203; 7: 0.302
